# Tested on: OVCAR-3
# Method: Inhibition of proliferation of ovarian cancer cell line OVCAR-3 (CellTiter Glo)
# Type: cell-based
# Recorded conditions: Homo sapiens; OVCAR-3 cells, 96 hours, CellTiter Glo; read-out: OVCAR-3 IC50
pIC50: −log10 of the molar value.
# pIC50 per entry

Cc1cc(NC(=O)c2ccc(NS(=O)(=O)C3(CN4CC(O)C4)CC3)cc2N2CCC3(CC2)CC3)nc(N2CCC(F)(F)CC2)n1 :: > 6.00
CC(C)(C)NS(=O)(=O)c1cccc(NC(=O)c2ccc(NC(C)(C)CO)nc2N2CCC(=C(F)F)CC2)c1 :: > 6.70
Cc1cc(NC(=O)c2ccc(NS(=O)(=O)C(F)CO)cc2N2CCC(=C(F)F)CC2)nc(N2CCC(F)(F)CC2)n1 (stereo not drawn) :: > 6.70
Cc1cc(NC(=O)c2ccc(NS(=O)(=O)[C@@H](C)CO)cc2N2CCC(=C(F)F)CC2)nc(N2CCC(F)(F)CC2)n1 :: > 7.00

Task item: // output pIC50; input `CC(C)=C1CCN(c2cc(NS(=O)(=O)CCO)ccc2C(=O)Nc2cc(C)nc(N3CCC(F)(F)CC3)n2)CC1` ; system OVCAR-3
Reply: > 6.30

---

# Method: Pharmacokinetic study in rats
# Recorded conditions: male, SD, rat, plasma, po, 3 mg/kg
Readout type: Tmax (h)

Cc1cc(NC(=O)c2ccc(NS(=O)(=O)[C@H](C)CO)cc2N2CCC(=C(F)F)CC2)nc(N2CCC(F)(F)CC2)n1 :: 6.67
Cc1cc(NC(=O)c2ccc(NS(=O)(=O)C3(CO)CC3)cc2N2CCC(=C(F)F)CC2)nc(N2CCC(F)(F)CC2)n1 :: 4.67
Cc1cc(NC(=O)c2ccc(NS(=O)(=O)CCO)cc2N2CCC(=C(F)F)CC2)nc(N2CCC(F)(F)CC2)c1F :: 5.33
Cc1cc(NC(=O)c2ccc(NS(=O)(=O)[C@H](C)CO)cc2N2CCC(=C(F)F)CC2)nc(N2CCC(F)(F)CC2)c1 :: 4.67

---

# Method: Pharmacokinetic study in rats
# Recorded conditions: male, SD, rat, plasma, po, 3 mg/kg
Readout type: half-life (h)

Reference set (2 entries):
Cc1cc(NC(=O)c2ccc(NS(=O)(=O)C3(CO)CC3)cc2N2CCC(=C(F)F)CC2)nc(N2CCC(F)(F)CC2)n1 :: 6.68
Cc1cc(NC(=O)c2ccc(NS(=O)(=O)[C@H](C)CO)cc2N2CCC(=C(F)F)CC2)nc(N2CCC(F)(F)CC2)n1 :: 7.18

[a] Cc1cc(NC(=O)c2ccc(NS(=O)(=O)CCO)cc2N2CCC(=C(F)F)CC2)nc(N2CCC(F)(F)CC2)c1F
[b] Cc1cc(NC(=O)c2ccc(NS(=O)(=O)[C@H](C)CO)cc2N2CCC(=C(F)F)CC2)nc(N2CCC(F)(F)CC2)c1
Task item: Between these two entries, a and b , state which has the higher half-life. Write down the label attached to your selection.
Reply: a
(a: 7.61 h, b: 5.01 h)

---

# Method: Pharmacokinetic study in rats
# Recorded conditions: male, SD, rat, plasma, po, 3 mg/kg
Readout type: Cmax (ng/mL)

Cc1cc(NC(=O)c2ccc(NS(=O)(=O)CCO)cc2N2CCC(=C(F)F)CC2)nc(N2CCC(F)(F)CC2)c1F [Compound 79] :: 160
Cc1cc(NC(=O)c2ccc(NS(=O)(=O)[C@H](C)CO)cc2N2CCC(=C(F)F)CC2)nc(N2CCC(F)(F)CC2)n1 [Compound 68] :: 227

[1] Cc1cc(NC(=O)c2ccc(NS(=O)(=O)[C@H](C)CO)cc2N2CCC(=C(F)F)CC2)nc(N2CCC(F)(F)CC2)c1 [Compound 82]
[2] Cc1cc(NC(=O)c2ccc(NS(=O)(=O)C3(CO)CC3)cc2N2CCC(=C(F)F)CC2)nc(N2CCC(F)(F)CC2)n1 [Compound 51]
Task item: Between these two entries, 1 and 2 , state which has the higher Cmax. Write down the label attached to your selection.
Reply: 1

The measured values listed here are drawn from patent US20250214965A1.
